Taken from patent US9346809B2.

I'd appreciate it if you could supply pEC50 values for the items below.
biological target: JAK1 (aa 850-1154, catalytic domain, GST-tag) (Homo sapiens); construct: JAK1 (aa 850-1154) and TYK2 (aa 871-1187) are expressed with an N-terminally fused GST-tag; GST (N); purchased Carna Biosciences, Inc; host or cells: baculovirus expression system; experiment: JAK kinase assay (HTRF, phosphorylation of TK substrate-biotin), JAK1; assay type: biochemical; details: HTRF assay, ATP at Km (7 μM); read-out: JAK1 kinase inhibitory activity (EC50)
pEC50: −log10 of the molar value.

// query pEC50 value for entry NS(=O)(=O)c1ccc(OCC(=O)N2CCN(c3ncnc4[nH]ccc34)CC23CC3)c(F)c1 [Example 434]
> 7.00

// query pEC50 value for entry CCN(CC)S(=O)(=O)N1CCN(c2ncnc3[nH]ccc23)CC12CC2 [Example 459]
> 7.00

// query pEC50 value for entry COCCC(=O)N1CCN(c2ncnc3[nH]ccc23)CC12CC2 [Example 456]
6.30 to 7.00

* * *

biological target: JAK1 (aa 850-1154, catalytic domain, GST-tag) (Homo sapiens, UniProt P23458); construct: JAK1 (aa 850-1154) and TYK2 (aa 871-1187) are expressed with an N-terminally fused GST-tag; GST (N); purchased Carna Biosciences, Inc; host or cells: baculovirus expression system; test: JAK kinase assay (HTRF, phosphorylation of TK substrate-biotin), JAK1; format: biochemical; details: ATP at Km (7 μM); read-out: JAK1 kinase inhibitory activity (EC50 indicator)
Sequence (P23458 850-1154): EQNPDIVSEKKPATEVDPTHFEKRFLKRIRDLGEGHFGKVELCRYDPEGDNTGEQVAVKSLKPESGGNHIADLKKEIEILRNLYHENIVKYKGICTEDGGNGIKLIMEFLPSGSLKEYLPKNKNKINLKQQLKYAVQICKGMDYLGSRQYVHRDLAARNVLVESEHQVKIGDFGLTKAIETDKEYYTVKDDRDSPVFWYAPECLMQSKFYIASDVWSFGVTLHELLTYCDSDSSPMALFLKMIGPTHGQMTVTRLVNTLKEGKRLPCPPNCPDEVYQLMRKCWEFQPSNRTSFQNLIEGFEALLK
QUANTITY: EC50

// query EC50 value for entry N#Cc1ccc(C(=O)N2CCN(c3ncnc4[nH]ccc34)CC23CC3)c(F)c1 [Example 92]
< 100 nM

// query EC50 value for entry CS(=O)(=O)c1cccc(CC(=O)N2CCN(c3ncnc4[nH]ccc34)CC23CC3)c1 [Example 101]
100 to 500 nM

// query EC50 value for entry N#Cc1ccc(C(=O)C(=O)N2C3CCC2CN(c2ncnc4[nH]ccc24)C3)cc1 [Example 128]
< 100 nM

// query EC50 value for entry CS(=O)(=O)c1cccc(C(=O)N2C3CCC2CN(c2ncnc4[nH]ccc24)C3)c1 [Example 135]
< 100 nM

// query EC50 value for entry CC(C)CNC(=S)N1[C@@H]2CC[C@H]1CN(c1ncnc3[nH]ccc13)C2 [Example 10]
100 to 500 nM

// query EC50 value for entry CN(C)S(=O)(=O)c1ccc(C(=O)N2CCN(c3ncnc4[nH]ccc34)CC23CC3)cc1 [Example 189]
< 100 nM

// query EC50 value for entry O=C(c1ccc2[nH]ccc2c1)N1CCN(c2ncnc3[nH]ccc23)CC12CC2 [Example 157]
< 100 nM

// query EC50 value for entry N#CCOc1ccc(C(=O)N2CCN(c3ncnc4[nH]ccc34)CC23CC3)cc1 [Example 68]
< 100 nM

// query EC50 value for entry Cc1nccnc1C(=O)N1[C@@H]2CC[C@H]1CN(c1ncnc3[nH]ccc13)C2 [Example 72]
100 to 500 nM

// query EC50 value for entry O=C(OCc1ccccc1)N1[C@@H]2CC[C@H]1CN(c1ncnc3[nH]ccc13)C2 [Example 58]
< 100 nM

// query EC50 value for entry NS(=O)(=O)c1ccc(/C=C/C(=O)N2CCN(c3ncnc4[nH]ccc34)CC23CC3)cc1 [Example 197]
< 100 nM

// query EC50 value for entry COCCOCC(=O)Nc1nc(N2CCN(C(=O)Cc3ccc(C#N)cc3)C3(CC3)C2)c2cc[nH]c2n1 [Example 96]
< 100 nM

// query EC50 value for entry CCCS(=O)(=O)N1[C@@H]2CC[C@H]1CN(c1ncnc3[nH]ccc13)C2 [Example 51]
100 to 500 nM

// query EC50 value for entry CC1CN(C(=O)Cc2cccc(C#N)c2)C2(CC2)CN1c1ncnc2[nH]ccc12 (stereo not drawn) [Example 146]
100 to 500 nM

// query EC50 value for entry Cn1cc(S(N)(=O)=O)cc1C(=O)N1C2CCC1CN(c1ncnc3[nH]ccc13)C2 [Example 142]
< 100 nM

// query EC50 value for entry CC1CN(C(=O)Cc2ccc(C#N)cc2)C2(CC2)CN1c1ncnc2[nH]ccc12 (stereo not drawn) [Example 147]
< 100 nM

// query EC50 value for entry O=C(c1cc2ccccc2s1)N1CCN(c2ncnc3[nH]ccc23)CC12CCCC2 [Example 75]
> 500 nM

// query EC50 value for entry N#Cc1ccc(CC(=O)N2CCN(c3ccnc4[nH]ccc34)CC23CC3)cc1 [Example 115]
< 100 nM
